target: Cytochrome P450 3A4 (Homo sapiens) (UniProt P08684); experiment: qHTS Assay for Activators of Cytochrome P450 3A4 (AID 885); settings: recombinant CYP3A4, Luciferin-PPXE luminescence, 60 min; series mostly up to 57.1 µM; also: nearly all actives have a fitted effect of over 65% in size
Sequence (P08684 whole entry, looked up): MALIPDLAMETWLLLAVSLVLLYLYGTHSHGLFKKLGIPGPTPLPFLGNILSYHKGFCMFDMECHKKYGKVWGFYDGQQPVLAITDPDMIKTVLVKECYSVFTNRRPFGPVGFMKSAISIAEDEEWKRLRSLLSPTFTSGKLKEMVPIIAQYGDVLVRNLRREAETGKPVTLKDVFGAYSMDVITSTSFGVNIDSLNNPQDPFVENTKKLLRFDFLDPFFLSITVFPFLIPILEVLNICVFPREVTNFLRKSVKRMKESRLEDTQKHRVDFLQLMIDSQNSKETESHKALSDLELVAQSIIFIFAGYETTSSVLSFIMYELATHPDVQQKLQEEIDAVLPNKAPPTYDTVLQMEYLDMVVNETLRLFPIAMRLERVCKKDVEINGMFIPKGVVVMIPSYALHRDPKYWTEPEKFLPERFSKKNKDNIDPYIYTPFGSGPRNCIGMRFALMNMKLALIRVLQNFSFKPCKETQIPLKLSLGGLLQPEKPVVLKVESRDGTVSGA
Active and inactive are the calls of the source. Calls follow the shape of the dose curve; as a rule, active = well fitted activation curve with a large enough effect; inconclusive = small, poorly fitted or top-dose-only effect; inactive = no such curve, though single readings can be large or run the other way.

COMPOUND | outcome
O=c1c(O)cccc2cc(O)c(O)c(O)c12 | inactive
CC[C@H](C(=O)[C@H](C)[C@H](O)[C@H](C)CCc1ccc(C)c(O)c1C(=O)O)[C@H]1O[C@](CC)([C@@H]2CC[C@@](O)(CC)[C@H](C)O2)C[C@H]1C | inactive
COc1cc(N[C@@H](C)CCCN)c2ncccc2c1 | inactive
C[C@@H](C(=O)O)c1ccc(C(=O)c2ccccc2)s1 | inactive
COc1cccc(-c2nc(NCCc3c[nH]c4ccc(OC)cc34)c3ccccc3n2)c1 | inactive
CC1(C)S[C@@H]2[C@H](NC(=O)[C@@H](N)c3ccccc3)C(=O)N2[C@H]1C(=O)O[C@H]1OC(=O)c2ccccc21 | inactive
COc1ccc(C2Oc3cc(OC)cc(OC)c3CC2O)cc1 (centres undefined) | inactive
C[C@]12C=CC(=O)C=C1CCC1C2C(O)C[C@]2(C)C1CC[C@]2(O)C(=O)CO (some centres undefined) | inactive
COc1cc(-c2cc(=O)c3c(O)c(OC)c(OC)c(OC)c3o2)cc(OC)c1OC | inactive

----------
molecular target: Rap guanine nucleotide exchange factor 4 (Homo sapiens); assay: Confirmatory qHTS for antagonist of cAMP-regulated guanine nucleotide exchange factor 4 (EPAC2) (AID 1645885); conditions: EPAC2 Rap1B-BODIPY-GDP exchange fluorescence, biochemical; series mostly up to 12.7 µM; also: nearly all actives have a fitted effect of over 25% in size
Results filed as inconclusive are left out. The source made the active and inactive calls. Calls follow the shape of the dose curve; as a rule, active = well fitted inhibition curve with a large enough effect; inconclusive = small, poorly fitted or top-dose-only effect; inactive = no such curve, though single readings can be large or run the other way.
Labels: active, inactive

COMPOUND | CATEGORY_LABEL
COC(=O)c1c(NC(=O)c2c(OC)cccc2OC)sc2c1CCCC2 | inactive
Cc1[nH]c2ccccc2c1C(C[N+](=O)[O-])c1cccs1 (stereo unspecified) | inactive
Cn1cc(C(c2ccccc2)c2ccc(Cl)s2)c2ccccc21 (stereo unspecified) | inactive
CN(C)C(CNS(=O)(=O)c1ccc(Cl)cc1)c1cccnc1 (stereo unspecified) | inactive
COc1ccc(NC(=O)C2=NN(c3ccccc3)C(=O)CC2)cn1 | inactive
COc1ccc2oc(C)c(C(=O)c3ccc(C)cc3)c2c1 | inactive
CCCC(=O)N1c2nc(C(C)C)nn2C2(CCCCC2)[C@@H]2CCCC[C@@H]21 | inactive
CCOc1ncccc1C(=O)Nc1ccc(C)c(S(=O)(=O)N2CCCCCC2)c1 | inactive
COc1cc(SC)ccc1C(=O)N(Cc1ccccc1)c1ccccc1 | active
CCN(CC)c1nc(SCC(=O)O)nc(N(CC)CC)n1 | active
CCN(CC)c1ccc2cc(-c3nc(-c4ccccc4F)no3)c(=O)oc2c1 | active

----------
test system: CP297; assay: qHTS profiling for inhibitors of Plasmodium falciparum proliferation (AID 504749); also: nearly all actives have a fitted effect of over 60% in size; settings: P. falciparum in erythrocytes, SYBR Green DNA, 72 h; series mostly up to 12.8 µM
Results filed as inconclusive are left out. Calls of active or inactive are those of the source. The call rests on the fitted dose curve; in most records, active means well fitted inhibition curve with a large enough effect; inconclusive means small, poorly fitted or top-dose-only effect; inactive means flat fitted curve, though single readings scatter.
Outcome codes: 1.0 for active, 0.0 for inactive

MOLECULE | CATEGORY_LABEL
O=C(Nc1ccccc1)OC[C@H](CN1CCCCC1)OC(=O)Nc1ccccc1 | 0.0
C[C@@]12CC[C@H]3[C@@H](CCC4=CC(=O)CC[C@]43C)[C@H]1CC[C@H]2C(=O)CO | 0.0
CCc1c(C)[nH]c2c1C(=O)[C@H](CN1CCOCC1)CC2 | 0.0
C=CCN1C(=CCO)[C@H]2C[C@H]3[C@@H]1CC[C@@]31c3ccccc3N3C=C4[C@@H]5N(/C=C/2[C@H]31)c1ccccc1[C@]51CC[C@H]2[C@H]1C[C@@H]4/C(=C/CO)N2CC=C | 0.0
CCC(=O)OCC(=O)[C@@]1(OC(=O)CC)[C@H](C)C[C@@H]2[C@@H]3[C@H]([C@@H](O)C[C@@]21C)[C@]1(C)C=CC(=O)C=C1C[C@@H]3Cl | 1.0
NC(CCC(=O)N[C@@H](CS)C(=O)NCC(=O)O)C(=O)O (some centres not stated) | 1.0
NC[C@@H]1O[C@H](O[C@@H]2[C@H](O[C@@H]3O[C@H](CO)[C@@H](O)[C@@H]3O)[C@@H](O)[C@@H](N)C[C@H]2N)[C@@H](N)[C@H](O)[C@@H]1O | 0.0

----------
assay: qHTS Assay for Lipid Storage Modulators (AID 1519); settings: Drosophila S3 cells, BODIPY lipid droplet/cell ratio, laser cytometry; measured here: lipid channel max response; cells loaded with oleic acid
Results filed as inconclusive are left out.
max response strictly under 10% means Criterion met; at 10% or over means Criterion not met.

MOLECULE | CATEGORY_LABEL
O=c1ccn([C@H]2C[C@H](O)[C@@H](CO)O2)c(=O)[nH]1 | Criterion not met
CC(N)C(O)c1cccc(O)c1 (centres undefined) | Criterion not met
CC(=O)OCC1=C(C(=O)O)N2C(=O)C(NC(=O)Cc3cccs3)C2SC1 (centres undefined) | Criterion not met
CC1(C)OC2CC3C4CCC5=CC(=O)C=C[C@@]5(C)[C@]4(F)C(O)C[C@@]3(C)[C@]2(C(=O)CO)O1 (some centres undefined) | Criterion met
COc1ccc(CC(N)C(=O)NC2C(CO)OC(n3cnc4c(N(C)C)ncnc43)C2O)cc1 (centres undefined) | Criterion met
CCC(=O)O[C@@]1(C(=O)CCl)[C@@H](C)C[C@@H]2[C@H]3CCC4=CC(=O)C=C[C@@]4(C)[C@]3(F)[C@@H](O)C[C@@]21C | Criterion met
COc1ccc2c(c1OC)OCC(c1ccc(OC)c(OC)c1OC)C2 (centres undefined) | Criterion not met
OCC1OC(n2cnc3c(Cl)nc(Cl)nc32)C(O)C1O (centres undefined) | Criterion not met
COC(=O)C1OC(=O)C2O[C@@]23[C@]2(C)C(OC(C)=O)CC4C(C)(C)C(=O)CC[C@]4(C)C2CC[C@@]13C (some centres undefined) | Criterion met
N[C@H](CO)Cc1cnc[nH]1 | Criterion not met
NC(C(=O)O)[C@@H]1CC(Cl)=NO1 (some centres undefined) | Criterion not met
COc1c(O)cc(O)cc1O | Criterion met
Nc1ccn([C@H]2C[C@H](O)[C@@H](CO)O2)c(=O)n1 | Criterion met
Nc1ncnc2c1[nH]c(=O)n2C1OC(CO)C(O)C1O (centres undefined) | Criterion not met
O[C@H](c1cc(C(F)(F)F)nc2c(C(F)(F)F)cccc12)[C@H]1CCCCN1 | Criterion met
CC(=O)OC1CCC2(C)C3=C(CCC2C1(C)C)[C@]1(C)CCC(C(C)CCC=C(C)C)[C@]1(C)CC3 (some centres undefined) | Criterion not met
CC(=O)[C@]1(O)CCC2C3CCC4=CC(=O)CC[C@@]4(C)C3CC[C@]21C (some centres undefined) | Criterion not met
CCCc1cc(OC)c2c(c1)OCO2 | Criterion met
COc1cc2nc(N3CCN(C(=O)[C@@H]4CCCO4)CC3)nc(N)c2cc1OC | Criterion met
COc1ccc(OC)c([C@H](O)CNC(=O)CN)c1 | Criterion met
CC1(C)OC2CC3C4CC(F)C5=CC(=O)C=C[C@@]5(C)[C@@]4(F)C(O)C[C@@]3(C)[C@]2(C(=O)CO)O1 (some centres undefined) | Criterion not met
Nc1nc2[nH]c(=O)[nH]c2c(=O)[nH]1 | Criterion not met
CC1CC[C@]2(CO)CC[C@]3(C)C(=CCC4[C@@]5(C)CCC(O)C(C)(C)C5CC[C@@]43C)C2C1C (some centres undefined) | Criterion not met
C[C@@]12CC[C@H]3[C@@H](CCC4=CC(=O)CC[C@]43C)[C@H]1CC[C@H]2C(=O)CO | Criterion met
C#C[C@]1(O)CC[C@@H]2[C@H]3CCC4=Cc5oncc5C[C@]4(C)[C@@H]3CC[C@@]21C | Criterion met
CC(C)CCCC(C)C1CCC2C3CC=C4CC(O)CCC4(C)C3CCC12C (centres undefined) | Criterion not met
O=C(OC[C@@H](O)CO)c1ccccc1Nc1ccnc2cc(Cl)ccc12 | Criterion met
Cc1cc(=O)c2c(O)cc(O)c(C)c2o1 | Criterion not met
CC(C)CCCC(C)C1CCC2C3CC(=O)[C@H]4CC(O)CC[C@]4(C)C3CC[C@@]12C (some centres undefined) | Criterion met
CC(=O)O[C@H]1C[C@@]2(C)[C@H](C[C@@H](O)[C@H]3[C@@]4(C)CC[C@@H](O)[C@@H](C)[C@H]4CC[C@@]32C)C1=C(CCC=C(C)C)C(=O)O | Criterion met
CC1=C(/C=C/C(C)=C/C=C/C(C)=C/C=C/C=C(C)/C=C/C=C(C)/C=C/C(=O)[C@]2(C)CC(O)CC2(C)C)C(C)(C)CC(O)C1 (some centres undefined) | Criterion not met
CC(=O)OC1CC2C(C)(C)C=CC(=O)[C@@]2(C)C2CC[C@@]3(C)C(c4ccoc4)OC(=O)C4OC43[C@]12C (some centres undefined) | Criterion met
CO[C@H]1[C@@H](OC(N)=O)[C@H](O)[C@@H](Oc2ccc3c(O)c(NC(=O)c4ccc(O)c(CC=C(C)C)c4)c(=O)oc3c2C)OC1(C)C | Criterion met
O=C(NCO)c1cccnc1 | Criterion not met
N#Cc1cccc(-c2cncnc2-n2ccnc2)c1 | Criterion not met
COC(=O)C(C)c1ccc(C(=O)c2cccs2)cc1 (centres undefined) | Criterion not met
C[C@@H]1O[C@H](O[C@@H]2[C@@H](Oc3cc(O)c4c(c3)O[C@H](c3ccc(O)cc3)CC4=O)O[C@@H](CO)[C@@H](O)[C@H]2O)[C@@H](O)[C@H](O)[C@@H]1O | Criterion met
O=C(O)C1=C[C@@H](O)[C@@H](O)[C@H](O)C1 | Criterion not met

Every entry's value here was drawn from PubChem BioAssay (NCATS).
